- measurement_notes: Cmax in dog at 25 mg/kg, po
- Type: ADME, organism-based, Canis lupus familiaris
- Parameters: dose 25 mg/kg, route oral
- measurement_context: in vivo
outcome_measure: Cmax (nM)
Kindly provide the numeric value in nM only, without the unit symbol.

Short answer for Cn1cncc1[C@@](C)(O)C1=Cc2cccnc2[C@@H](N2CCN(C(=O)OC(C)(C)C)CC2)c2ccc(Cl)cc21 : Cmax was 600

----------
- measurement_notes: AUC in mouse at 25 mg/kg, po
- Assay type: ADME, organism-based
- Set-up: dose 25 mg/kg, route oral
- measurement_context: plasma
outcome_measure: AUC (µM·h)
Give the value in µM·h but do not write µM·h after it.

The reported value for Cn1cncc1[C@@](C)(O)C1=Cc2cccnc2[C@@H](N2CCN(C(=O)OC(C)(C)C)CC2)c2ccc(Cl)cc21 in terms of AUC is 82

Value source: ChEMBL document CHEMBL3112503
